Test: LD50 (mice)
Assay Context: mouse, in vivo

{"columns": ["Compound", "Uom", "LD50"],
 "data": [
  ["OC(Cc1ccc(Cl)cc1Cl)(Cn1ccnc1)c1ccc(Cl)cc1Cl (centres unmarked)", "mg/kg", 1000],
  ["Cl.OC(Cc1ccc(Cl)cc1)(Cn1ccnc1)c1ccc(Cl)cc1Cl (centres unmarked)", "mg/kg", 1000]
]}
